The reported numbers originate from paper PMC10539501.

# Protocol Summary: in vitro
# Measurement Context: both, human, plasma
Starred links: 1 amine or outer side, 2 acyl side, 3 side chain; linkers in the order of their positions; H or OH if unused. Non-standard residues stand in square brackets, D forms with d. Residues, ends and D or L forms follow the SMILES beside them. X6 = O=C([C@H](Cc1ccc(O)cc1)NC(=S)[C@H]1CCCN1[*:1])[*:2]; X2 = CC(C)C[C@H](NC(=S)[C@@H](CC(C)C)N[*:1])C(=O)[*:2]; X3 = CC(C)C[C@H](N[*:1])C(=S)N[C@H](CC(C)C)C(=O)[*:2]; NMeL = CN[C@@H](CC(C)C)C(=O)O; dNMeL = CN[C@H](CC(C)C)C(=O)O
Readout: remaining at 48 h (%)

CC(C)C[C@@H]1NC(=O)[C@H](Cc2ccc(O)cc2)NC(=O)[C@H]2CCCN2C(=O)[C@H](CC(C)C)NC(=O)[C@H](CC(C)C)N(C)C(=O)[C@@H](CC(C)C)NC1=O [10h] (cyclo(L[dL][NMeL]L[dP]Y)) ... 13
CC(C)C[C@@H]1NC(=O)[C@@H](CC(C)C)N(C)C(=O)[C@H](CC(C)C)NC(=O)[C@H](Cc2ccc(O)cc2)NC(=O)[C@H]2CCCN2C(=O)[C@H](CC(C)C)NC1=O [10g] (cyclo(LL[dP]YL[dNMeL])) ... 22
CC(C)C[C@@H]1NC(=O)[C@H](Cc2ccc(O)cc2)NC(=S)[C@H]2CCCN2C(=O)[C@H](CC(C)C)NC(=O)[C@H](CC(C)C)NC(=O)[C@@H](CC(C)C)NC1=O [10d] (cyclo(LL[X6]L[dL])) ... 31
CC(C)C[C@@H]1NC(=O)[C@@H](CC(C)C)NC(=S)[C@H](CC(C)C)NC(=O)[C@H](Cc2ccc(O)cc2)NC(=O)[C@H]2CCCN2C(=O)[C@H](CC(C)C)NC1=O [10f] (cyclo(LL[dP]Y[X3])) ... 25
CC(C)C[C@@H]1NC(=O)[C@H](Cc2ccc(O)cc2)NC(=O)[C@H]2CCCN2C(=O)[C@H](CC(C)C)NC(=O)[C@H](CC(C)C)NC(=S)[C@@H](CC(C)C)NC1=O [10a] (cyclo(L[dP]YL[X2])) ... 23

[a] CC(C)C[C@@H]1NC(=O)[C@H](Cc2ccc(O)cc2)NC(=O)[C@H]2CCCN2C(=O)[C@H](CC(C)C)N(C)C(=O)[C@H](CC(C)C)NC(=O)[C@@H](CC(C)C)NC1=O [10i] (cyclo(L[NMeL][dP]YL[dL]))
[b] CC(C)C[C@@H]1NC(=O)[C@H](Cc2ccc(O)cc2)NC(=O)[C@H]2CCCN2C(=O)[C@H](CC(C)C)NC(=O)[C@H](CC(C)C)NC(=O)[C@@H](CC(C)C)NC1=O [compound 10, cyclo(-D-Leu^1-Leu-Leu-D-Pro-Tyr-Leu^6-)] (cyclo(LL[dP]YL[dL]))
Could you determine which record has the numerically smaller remaining at 48 h? Candidates: a and b Returns: label corresponding to the selected item.
b

###

# Protocol Summary: in vivo
# Measurement Context: male, Sprague Dawley, rat, sc
Starred links: 1 amine or outer side, 2 acyl side, 3 side chain; linkers in the order of their positions; H or OH if unused. Non-standard residues stand in square brackets, D forms with d. Residues, ends and D or L forms follow the SMILES beside them. X10 = NCCCC[C@H](NC(=S)[C@@H](Cc1c[nH]c2ccccc12)N[*:1])C(=O)[*:2]; X7 = C[C@@H](O)[C@H](NC(=S)[C@H](CCCCN)N[*:1])C(=O)[*:2]; X8 = O=C([C@H](Cc1ccccc1)NC(=S)[C@@H]1CCCN1[*:1])[*:2]; X9 = O=C([C@@H]1CCCN1C(=S)[C@H](Cc1ccccc1)N[*:1])[*:2]
Readout: level at 1 h (ng/mL)

C[C@@H](O)[C@@H]1NC(=O)[C@H](CCCCN)NC(=O)[C@@H](Cc2c[nH]c3ccccc23)NC(=O)[C@H](Cc2ccccc2)NC(=O)[C@@H]2CCCN2C(=S)[C@H](Cc2ccccc2)NC1=O [13d] (cyclo(F[dW]KT[X9])) ... 77
C[C@@H](O)[C@@H]1NC(=O)[C@H](CCCCN)NC(=O)[C@@H](Cc2c[nH]c3ccccc23)NC(=O)[C@H](Cc2ccccc2)NC(=O)[C@@H]2CCCN2C(=O)[C@H](Cc2ccccc2)NC1=O [compound 13, cyclo(-D-Trp^1-Lys-Thr-Phe-Pro-Phe^6-)] (cyclo(PF[dW]KTF)) ... 128
C[C@@H](O)[C@@H]1NC(=S)[C@H](CCCCN)NC(=O)[C@@H](Cc2c[nH]c3ccccc23)NC(=O)[C@H](Cc2ccccc2)NC(=O)[C@@H]2CCCN2C(=O)[C@H](Cc2ccccc2)NC1=O [13b] (cyclo(FPF[dW][X7])) ... 44

[1] C[C@@H](O)[C@@H]1NC(=O)[C@H](CCCCN)NC(=S)[C@@H](Cc2c[nH]c3ccccc23)NC(=O)[C@H](Cc2ccccc2)NC(=O)[C@@H]2CCCN2C(=O)[C@H](Cc2ccccc2)NC1=O [13a] (cyclo(FPF[X10]T))
[2] C[C@@H](O)[C@@H]1NC(=O)[C@H](CCCCN)NC(=O)[C@@H](Cc2c[nH]c3ccccc23)NC(=O)[C@H](Cc2ccccc2)NC(=S)[C@@H]2CCCN2C(=O)[C@H](Cc2ccccc2)NC1=O [13e] (cyclo(F[X8][dW]KT))
Could you determine which record has the numerically smaller level at 1 h? Candidates: 1 and 2 Returns: label corresponding to the selected item.
2

###

# Protocol Summary: in vitro
# Measurement Context: pig, simulated intestinal fluid
Starred links: 1 amine or outer side, 2 acyl side, 3 side chain; linkers in the order of their positions; H or OH if unused. Non-standard residues stand in square brackets, D forms with d. Residues, ends and D or L forms follow the SMILES beside them. X6 = O=C([C@H](Cc1ccc(O)cc1)NC(=S)[C@H]1CCCN1[*:1])[*:2]; X2 = CC(C)C[C@H](NC(=S)[C@@H](CC(C)C)N[*:1])C(=O)[*:2]; X5 = CC(C)C[C@H](NC(=S)[C@H](CC(C)C)N[*:1])C(=O)[*:2]; NMeY = CN[C@@H](Cc1ccc(O)cc1)C(=O)O; NMeL = CN[C@@H](CC(C)C)C(=O)O; dNMeL = CN[C@H](CC(C)C)C(=O)O
Readout: remaining at 1 h (%)

CC(C)C[C@@H]1NC(=O)[C@@H](CC(C)C)NC(=O)[C@H](CC(C)C)NC(=O)[C@H](Cc2ccc(O)cc2)N(C)C(=O)[C@H]2CCCN2C(=O)[C@H](CC(C)C)NC1=O [10j] (cyclo(LL[dP][NMeY]L[dL])) ... 38
CC(C)C[C@@H]1NC(=O)[C@H](Cc2ccc(O)cc2)NC(=O)[C@H]2CCCN2C(=O)[C@H](CC(C)C)NC(=O)[C@H](CC(C)C)NC(=S)[C@@H](CC(C)C)NC1=O [10a] (cyclo(L[dP]YL[X2])) ... 55.9
CC(C)C[C@@H]1NC(=O)[C@H](Cc2ccc(O)cc2)NC(=O)[C@H]2CCCN2C(=O)[C@H](CC(C)C)NC(=S)[C@H](CC(C)C)NC(=O)[C@@H](CC(C)C)NC1=O [10b] (cyclo(L[dL][X5][dP]Y)) ... 47.1
CC(C)C[C@@H]1NC(=O)[C@@H](CC(C)C)NC(=O)[C@H](CC(C)C)N(C)C(=O)[C@H](Cc2ccc(O)cc2)NC(=O)[C@H]2CCCN2C(=O)[C@H](CC(C)C)NC1=O [10k] (cyclo(LL[dP]Y[NMeL][dL])) ... 62
CC(C)C[C@@H]1NC(=O)[C@H](Cc2ccc(O)cc2)NC(=S)[C@H]2CCCN2C(=O)[C@H](CC(C)C)NC(=O)[C@H](CC(C)C)NC(=O)[C@@H](CC(C)C)NC1=O [10d] (cyclo(LL[X6]L[dL])) ... 56.2

[I] CC(C)C[C@@H]1NC(=O)[C@H](Cc2ccc(O)cc2)NC(=O)[C@H]2CCCN2C(=O)[C@H](CC(C)C)NC(=O)[C@H](CC(C)C)N(C)C(=O)[C@@H](CC(C)C)NC1=O [10h] (cyclo(L[dL][NMeL]L[dP]Y))
[II] CC(C)C[C@@H]1NC(=O)[C@@H](CC(C)C)N(C)C(=O)[C@H](CC(C)C)NC(=O)[C@H](Cc2ccc(O)cc2)NC(=O)[C@H]2CCCN2C(=O)[C@H](CC(C)C)NC1=O [10g] (cyclo(LL[dP]YL[dNMeL]))
Could you determine which record has the numerically smaller remaining at 1 h? Candidates: I and II Returns: label corresponding to the selected item.
II

###

# Protocol Summary: in vitro
# Measurement Context: both, human, plasma
Starred links: 1 amine or outer side, 2 acyl side, 3 side chain; linkers in the order of their positions; H or OH if unused. Non-standard residues stand in square brackets, D forms with d. Residues, ends and D or L forms follow the SMILES beside them. X6 = O=C([C@H](Cc1ccc(O)cc1)NC(=S)[C@H]1CCCN1[*:1])[*:2]; X3 = CC(C)C[C@H](N[*:1])C(=S)N[C@H](CC(C)C)C(=O)[*:2]; X5 = CC(C)C[C@H](NC(=S)[C@H](CC(C)C)N[*:1])C(=O)[*:2]
Readout: remaining at 60 h (%)

CC(C)C[C@@H]1NC(=O)[C@@H](CC(C)C)NC(=S)[C@H](CC(C)C)NC(=O)[C@H](Cc2ccc(O)cc2)NC(=O)[C@H]2CCCN2C(=O)[C@H](CC(C)C)NC1=O [10f] (cyclo(LL[dP]Y[X3])) ... 26
CC(C)C[C@@H]1NC(=O)[C@H](Cc2ccc(O)cc2)NC(=O)[C@H]2CCCN2C(=O)[C@H](CC(C)C)NC(=S)[C@H](CC(C)C)NC(=O)[C@@H](CC(C)C)NC1=O [10b] (cyclo(L[dL][X5][dP]Y)) ... 15
CC(C)C[C@@H]1NC(=O)[C@H](Cc2ccc(O)cc2)NC(=S)[C@H]2CCCN2C(=O)[C@H](CC(C)C)NC(=O)[C@H](CC(C)C)NC(=O)[C@@H](CC(C)C)NC1=O [10d] (cyclo(LL[X6]L[dL])) ... 21
